System: PCSK9 gene
Experiment: PCSK9 gRNA/SpCas9 editing in primary human hepatocytes (Tables 2, 4)
Type: cell-based
Settings: 100 ng/RNA/mL; SpCas9 mRNA MS002 1:1 by weight
In the oligonucleotide strings, read from the 5' end, every base follows the letter of its sugar. An asterisk marks phosphorothioate; unmarked linkages are phosphodiester. Other units and linkages are bracketed, terminal groups are in braces. A string of capitals states the bases alone. m = 2'-O-methyl; r = 2'-OH (RNA)
RECORDED_METRIC: Human Primary Hepatocyte Editing % 100 (%)
Give the value, in units of %, as a plain number.

MOLECULE	UNIT_DESCRIPTOR	Human Primary Hepatocyte Editing % 100
GA171: PCSK9 gRNA; protospacer TCTTGGTGAGGTATCCCCGG (SEQ ID NO: 165) (nucleic acid, 2'-O-methyl at 1, 2, other sugars, backbone and T or U not given here; further chemistry not fully specified) guide: UCTTGGTGAGGTATCCCCGGGTTTTAGAGCTAGAAATAGCAAGTTAAAATAAGGCTAGTCCGTTATCAACTTGAAAAAGTGGCACCGAGTCGGTGCTTTT	%	2.37

Turning now to a further record.
Recorded Human Primary Hepatocyte Editing % 100 of GA180: PCSK9 gRNA; protospacer GCGCACTGCCCGCCGCCTGC (SEQ ID NO: 174) (nucleic acid) guide: mG*mC*mG*rCrArCrUrGrCrCrCrGrCrCrGrCrCrUrGrCrGrUrUrUrUrArGrArGrCrUrArGrArArArUrArGrCrArArGrUrUrArArArArUrArArGrGrCrUrArGrUrCrCrGrUrUrArUrCrArArCrUrUrGrArArArArArGrUrGrGrCrArCrCrGrArGrUrCrGrGrUrGrCrU*mU*mU*mU , please.
0.22

// data source = patent US20250152746A1
